All figures here come from PubChem BioAssay (NCI).

Listing: TGI of selected molecules
test system: M14 melanoma; test: NCI tumour cell line growth inhibition, 48 h

Previously resolved entries follow.
>  <Molecule>
COc1cc(C2(C)SCCCS2)c(I)c(OC)c1OC

>  <TGI>
> 100 µM

$$$$
>  <Molecule>
O=C(O)c1ccc2cccnc2c1O

>  <TGI>
26.6 µM

$$$$
>  <Molecule>
CC(=O)Nc1ccc(/C=C(\NC(=O)c2ccccc2)C(=O)NNS(=O)(=O)c2ccc(C)cc2)cc1

>  <TGI>
> 100 µM

$$$$
>  <Molecule>
Cc1c(N)nc(C(CC(N)=O)NCC(N)C(N)=O)nc1C(=O)NC(C(=O)NC(C)C(O)C(C)C(=O)NC(C(=O)NCCc1nc(-c2nc(C(=O)NCCCNCCCCN)cs2)cs1)C(C)O)C(OC1OC(CO)C(O)C(O)C1OC1OC(CO)C(O)C(OC(N)=O)C1O)c1cnc[nH]1 (stereo not given)

>  <TGI>
> 10 µM

$$$$
>  <Molecule>
O=S(=O)(/N=C1/SC(=Nc2ccccc2)N(c2ccccc2)/C1=N/S(=O)(=O)c1ccccc1)c1ccccc1

>  <TGI>
62.8 µM

$$$$
>  <Molecule>
CNC(C)Cc1ccc(O)cc1 (stereo not given)

>  <TGI>
> 100 µM

$$$$
>  <Molecule>
O=C1C2=C(c3ccccc31)C(c1ccc(F)cc1)N1C(=O)CCSC1=N2 (stereo not given)

>  <TGI>
> 100 µM

$$$$
>  <Molecule>
O=c1[nH]cnc2nc(-c3ccc(N(CCCl)CCCl)cc3)[nH]c12

>  <TGI>
> 100 µM

$$$$
>  <Molecule>
CCC1OC(/C(C)=C/C(C)/C=C/C2C(C)C2/C=C/C2OC(CC(=O)O)CC(O)C2O)CC=C1C (stereo not given)

>  <TGI>
> 50 µM

$$$$

// switching to the query molecule
Recorded result, Nc1ccc(-c2nc3ccccc3s2)cc1 , TGI: 34 µM

----------
tested on: M19-MEL melanoma; test: NCI tumour cell line growth inhibition, 48 h
Quantity: TGI

Previously resolved entries follow.
>  <Compound>
NC1CCCCC1N.O=S(=O)([O-])CCCN1CCN(CCO)CC1.O=S(=O)([O-])CCCN1CCN(CCO)CC1.[Pt+4]

>  <Observed Measurement>
16.2 µM

$$$$
>  <Compound>
CN/N=C(\C(=O)Nc1ccc([N+](=O)[O-])cc1[N+](=O)[O-])C1NC(=O)NC1=O (stereo not drawn)

>  <Observed Measurement>
> 100 µM

$$$$
>  <Compound>
Cc1c(N)nc(C(CC(N)=O)NCC(N)C(N)=O)nc1C(=O)NC(C(=O)NC(C)C(O)C(C)C(=O)NC(C(=O)NCCc1nc(-c2nc(C(=O)NCCCNCCCCN)cs2)cs1)C(C)O)C(OC1OC(CO)C(O)C(O)C1OC1OC(CO)C(O)C(OC(N)=O)C1O)c1cnc[nH]1 (stereo not drawn)

>  <Observed Measurement>
> 10 µM

$$$$
>  <Compound>
Cc1ccc(SCC(O)=C2C(=O)CCCC2=O)cc1

>  <Observed Measurement>
> 100 µM

$$$$
>  <Compound>
CN(CCN(C)C(=O)CCn1ccc(=O)[nH]c1=O)C(=O)CCn1ccc(=O)[nH]c1=O

>  <Observed Measurement>
> 100 µM

$$$$

Recorded result, O=c1cccccc1NCCNc1cccccc1=O , TGI: > 100 µM

Recorded result, CC(=O)Nc1ccc(/C=C(\NC(=O)c2ccccc2)C(=O)NNS(=O)(=O)c2ccc(C)cc2)cc1 , TGI: > 100 µM

Recorded result, CCCCCCCCCCCCCCC(O)C1CCC(C(O)CCC(O)CCCCCC(O)CC2=CC(C)OC2=O)O1 (stereo not drawn) , TGI: 11.2 µM

----------
test system: TK-10 renal; test: NCI tumour cell line growth inhibition, 48 h
Quantity: GI50

Previously resolved entries follow.
>  <Molecule>
C(#Cc1ccccc1C#Cc1ccccn1)c1ccccn1

>  <Observed Measurement>
6.54 µM

$$$$
>  <Molecule>
C[C@H]1CCC/C=C/[C@@H]2C[C@H](O)C[C@H]2[C@H](O)[C@@H](SC2OC(CO)C(O)C(O)C2O)CC(=O)O1 (some centres undefined)

>  <Observed Measurement>
> 100 µM

$$$$
>  <Molecule>
CC[C@H](C)[C@H](NC(=O)c1nccn1C)C(=O)N(C)[C@H](C[C@@H](OC(C)=O)c1nc(C(=O)N[C@@H](Cc2ccccc2)C[C@H](C)C(=O)OC)cs1)C(C)C

>  <Observed Measurement>
7.49 µM

$$$$
>  <Molecule>
Cc1cc(S(=O)(=O)Nc2nc3cc(-c4ccsc4)sc3c(=O)n2N)c(S)cc1Cl

>  <Observed Measurement>
> 100 µM

$$$$
>  <Molecule>
CC(=O)NS(=O)(=O)c1ccc(-n2nc(-c3ccccc3)cc2C2=CC(=O)C=CC2=O)cc1

>  <Observed Measurement>
75.4 µM

$$$$
>  <Molecule>
CN(C)CCNc1c2c(c(NCCN(C)C)c3c(CO)c[nH]c13)C(=O)c1ccccc1C2=O

>  <Observed Measurement>
2.53 µM

$$$$
>  <Molecule>
C/C=C/C(=O)[O-].N.N.N.N.N.[Co+3].[O-][Cl+3]([O-])([O-])[O-]

>  <Observed Measurement>
> 100 µM

$$$$
>  <Molecule>
COc1cc(/C=C\c2cc(OC)c(OC)c(OC)c2)cc(NS(=O)(=O)c2cccc(Cl)c2)c1OC

>  <Observed Measurement>
2.01 µM

$$$$

// switching to the query molecule
Recorded result, CCC1OC(/C(C)=C/C(C)/C=C/C2C(C)C2/C=C/C2OC(CC(=O)O)CC(O)C2O)CC=C1C (centres undefined) , GI50: 9.6 µM

----------
system: MDA-MB-231 breast; assay: NCI tumour cell line growth inhibition, 48 h
Listing: TGI of selected molecules

Previously resolved entries follow.
>  <Molecule>
COc1cc(-c2[o+]c3cc(O)cc(OC4OC(CO)C(O)C(O)C4O)c3cc2OC2OC(CO)C(O)C(O)C2O)cc(OC)c1O (centres undefined)

>  <Observed Measurement>
> 100 µM

$$$$
>  <Molecule>
c1ccc(CNc2ncnc3n[nH]nc23)cc1

>  <Observed Measurement>
> 100 µM

$$$$
>  <Molecule>
CC1(O)C(=O)OC2CC([C@]3(O)CCC4[C@@H]5C[C@H]6O[C@]67[C@@H](O)C=CC(=O)[C@]7(C)C5CC[C@@]43C)C1(C)C2 (some centres undefined)

>  <Observed Measurement>
36 µM

$$$$
>  <Molecule>
CCCCCCCCC[n+]1cccc(C2C(C(=O)OCC)=C(C)NC(C)=C2C(=O)OCC)c1

>  <Observed Measurement>
10.9 µM

$$$$
>  <Molecule>
O=C(O)c1cc2c(c3ccsc13)-c1ccccc1CC2

>  <Observed Measurement>
> 100 µM

$$$$
>  <Molecule>
CC(C)(O)CCC(O)C(C)(O)C1CCC2(O)C3=CC(=O)C4(O)CC(O)C(O)CC4(C)C3CCC12C (centres undefined) (tested in a mixture with another compound)

>  <Observed Measurement>
> 100 µM

$$$$

Recorded result, O=c1oc2ccccc2c(O)c1Cc1cccc(Cc2c(O)c3ccccc3oc2=O)c1 , TGI: > 100 µM

Recorded result, COc1ccc(C(C)NNC(=O)c2ccncc2)cc1F (centres undefined) , TGI: > 100 µM

Recorded result, S=c1[nH]nc(SCc2ccccc2Cl)c2[nH]cnc12 , TGI: > 100 µM

Recorded result, CSc1ccccc1P(CCP(c1ccccc1SC)c1ccccc1SC)c1ccccc1SC , TGI: > 100 µM

Recorded result, O=C1C(=Cc2ccccc2[N+](=O)[O-])N=C(c2ccccc2)N1n1c(-c2ccccc2)nc2ccccc2c1=O , TGI: > 100 µM

Recorded result, COC1=CC(=O)c2c(cc(COP(=O)(N(C)CCBr)N(C)CCBr)n2C)C1=O , TGI: 15.3 µM

----------
tested on: SF-268 CNS; assay: NCI tumour cell line growth inhibition, 48 h
Listing: TGI of selected compounds

Previously resolved entries follow.
>  <Compound>
COc1cc(/C=C/c2cc(/C=C/c3ccc(O)c(OC)c3)[nH]c(=O)n2)ccc1O

>  <TGI>
> 100 µM

$$$$
>  <Compound>
Cc1ccc(SCC(O)=C2C(=O)CCCC2=O)cc1

>  <TGI>
> 100 µM

$$$$
>  <Compound>
CCCCN(CCCC)C(=O)C(=O)CC(=O)/C=C/c1ccccc1

>  <TGI>
> 100 µM

$$$$
>  <Compound>
O=C(C=P(c1ccccc1)(c1ccccc1)c1ccccc1)c1ccc(-c2ccc(F)cc2F)cc1

>  <TGI>
15.5 µM

$$$$
>  <Compound>
CC1(C)N=C(N)N=C(N)N1c1ccc(OCCCCNC(=O)c2ccc(S(=O)(=O)F)cc2)c(Cl)c1

>  <TGI>
> 100 µM

$$$$
>  <Compound>
Cc1cc(S(=O)(=O)Nc2nc3cc(-c4ccsc4)sc3c(=O)n2N)c(S)cc1Cl

>  <TGI>
> 100 µM

$$$$
>  <Compound>
CC(C)(O)CCC(O)C(C)(O)C1CCC2(O)C3=CC(=O)C4(O)CC(O)C(O)CC4(C)C3CCC12C (centres undefined) (tested in a mixture with another compound)

>  <TGI>
> 100 µM

$$$$
>  <Compound>
CCOC(=O)c1cc(-c2ccn(C(C)=O)c2)c(-c2cc(C)co2)[nH]1

>  <TGI>
> 100 µM

$$$$

Recorded result, Cc1[nH]n(-c2ccccc2)c(=O)c1C(=O)c1ccccc1 , TGI: > 25 µM

Recorded result, CC1(C)Oc2ccc3c(=O)c4ccccc4oc3c2C1C(=O)O (centres undefined) , TGI: > 100 µM

Recorded result, O=C(O)c1cc2c(c3ccsc13)-c1ccccc1CC2 , TGI: > 100 µM

Recorded result, COc1cc(/C=C\c2cc(OC)c(OC)c(OC)c2)cc(NS(=O)(=O)c2cccc(Cl)c2)c1OC , TGI: > 100 µM

Recorded result, Cc1cccc(C(O)c2cccnc2)c1O (centres undefined) , TGI: > 100 µM

Recorded result, O=c1oc2cc(OS(=O)(=O)c3ccccc3)ccc2c2c1CCCCC2 , TGI: > 100 µM

Recorded result, CN(C)CCNc1c2c(c(NCCN(C)C)c3c(CO)c[nH]c13)C(=O)c1ccccc1C2=O , TGI: 22.1 µM

Recorded result, O=C(Nc1cccc([N+](=O)[O-])c1)c1cc2ccccc2cc1O , TGI: > 100 µM
